# Test system: rat chronic carcinogenicity bioassay, TD50
# ASSAY_DETAILS: DSSTox (CPDBAS) Carcinogenic Potency Database Summary Rat Bioassay Results
# CONDITION_SUMMARY: TD50_Rat_Note: TD50 is harmonic mean of more than one positive test; TargetSites_Rat_Female: bone; mammary gland; urinary bladder; vascular system; stronger effect = lower value
OBSERVATION_TYPE: Potency

[[record]]
record_smiles = "Cc1ccccc1N"
result = "43.6 mg/kg/day"


* * *

# Tested on: rat chronic carcinogenicity bioassay, TD50
# ASSAY_DETAILS: DSSTox (CPDBAS) Carcinogenic Potency Database Summary Rat Bioassay Results
# CONDITION_SUMMARY: TD50_Rat_Note: TD50 is harmonic mean of more than one positive test; harmonic mean of TD50 includes a value for upper 99% confidence li; TargetSites_Rat_Female: esophagus; liver; stomach; vascular system; stronger effect = lower value
OBSERVATION_TYPE: Potency

[[record]]
record_smiles = "O=NN1CC=CCC1"
measurement_target = "rat chronic carcinogenicity bioassay, TD50"
result = "0.0601 mg/kg/day"


* * *

# System: rat chronic carcinogenicity bioassay, TD50
# ASSAY_DETAILS: DSSTox (CPDBAS) Carcinogenic Potency Database Summary Rat Bioassay Results
# CONDITION_SUMMARY: TD50_Rat_Note: harmonic mean of TD50 includes a value for upper 99% confidence limit from study with 100% tumor incidence but no lifeta; TargetSites_Rat_Female: hematopoietic system; mammary gland; stronger effect = lower value
OBSERVATION_TYPE: Potency

[[record]]
record_smiles = "CN(C)Nc1nc(-c2ccc([N+](=O)[O-])o2)cs1"
observation_type = "Potency"
result = "0.41 mg/kg/day"


* * *

# Test system: rat chronic carcinogenicity bioassay, TD50
# ASSAY_DETAILS: DSSTox (CPDBAS) Carcinogenic Potency Database Summary Rat Bioassay Results
# CONDITION_SUMMARY: TD50_Rat_Note: TD50 is harmonic mean of more than one positive test; TargetSites_Rat_Female: adrenal gland; pituitary gland; stronger effect = lower value
OBSERVATION_TYPE: Potency

[[record]]
record_smiles = "S=c1[nH]c2ccccc2s1"
result = "344 mg/kg/day"


* * *

# Test system: rat chronic carcinogenicity bioassay, TD50
# ASSAY_DETAILS: DSSTox (CPDBAS) Carcinogenic Potency Database Summary Rat Bioassay Results
# CONDITION_SUMMARY: TD50_Rat_Note: TD50 is harmonic mean of more than one positive test; TargetSites_Rat_Female: clitoral gland; ear Zymbals gland; large intestine; liver; mammary gland; oral cavity; skin; uterus; stronger effect = lower value
OBSERVATION_TYPE: Potency

[[record]]
record_smiles = "COc1cc(-c2ccc(N)c(OC)c2)ccc1N"
result = "1.04 mg/kg/day"


* * *

# Test system: rat chronic carcinogenicity bioassay, TD50
# ASSAY_DETAILS: DSSTox (CPDBAS) Carcinogenic Potency Database Summary Rat Bioassay Results
# CONDITION_SUMMARY: TD50_Rat_Note: TD50 is harmonic mean of more than one positive test; greater than ten-fold variation among TD50 values for positive res; TargetSites_Rat_Female: mammary gland; subcutaneous tissue; stronger effect = lower value
# Text: The Carcinogenic Potency Database (CPDB) is a unique and widely used international resource of the results of over 6500 chronic, long-term animal cancer tests on over 1500 chemical substances. The CPDB provides easy access to the bioassay literature, with qualitative and quantitative analyses of both positive and negative experiments that have been published over the past 50 years in the general literature and by the National Cancer Institute/National Toxicology Program. […]
OBSERVATION_TYPE: Potency

[[record]]
record_smiles = "ClCCCl"
result = "14.6 mg/kg/day"


* * *

# System: rat chronic carcinogenicity bioassay, TD50
# ASSAY_DETAILS: DSSTox (CPDBAS) Carcinogenic Potency Database Summary Rat Bioassay Results
# CONDITION_SUMMARY: TargetSites_Rat_BothSexes: liver; stronger effect = lower value
OBSERVATION_TYPE: Potency

[[record]]
record_smiles = "CCOc1ccc(NC(N)=O)cc1"
observation_type = "Potency"
result = "537 mg/kg/day"


* * *

# Test system: rat chronic carcinogenicity bioassay, TD50
# ASSAY_DETAILS: DSSTox (CPDBAS) Carcinogenic Potency Database Summary Rat Bioassay Results
# CONDITION_SUMMARY: TargetSites_Rat_BothSexes: urinary bladder; stronger effect = lower value
OBSERVATION_TYPE: Potency

[[record]]
record_smiles = "Cc1ccccc1S(N)(=O)=O"
observation_type = "Potency"
result = "3960 mg/kg/day"


* * *

# Test system: rat chronic carcinogenicity bioassay, TD50
# ASSAY_DETAILS: DSSTox (CPDBAS) Carcinogenic Potency Database Summary Rat Bioassay Results
# CONDITION_SUMMARY: TD50_Rat_Note: TD50 is harmonic mean of more than one positive test; greater than ten-fold variation among TD50 values for positive res; TargetSites_Rat_Female: all tumor bearing animals; TargetSites_Rat_BothSexes: hematopoietic system; nervous system; urinary bladder; stronger effect = lower value
OBSERVATION_TYPE: Potency

[[record]]
molecule = "O=P1(N(CCCl)CCCl)NCCCO1 (stereo unspecified)"
measurement_target = "rat chronic carcinogenicity bioassay, TD50"
result = "2.21 mg/kg/day"


* * *

# System: rat chronic carcinogenicity bioassay, TD50
# ASSAY_DETAILS: DSSTox (CPDBAS) Carcinogenic Potency Database Summary Rat Bioassay Results
# CONDITION_SUMMARY: TD50_Rat_Note: TD50 is harmonic mean of more than one positive test; greater than ten-fold variation among TD50 values for positive res; TargetSites_Rat_Female: kidney; large intestine; liver; stronger effect = lower value
OBSERVATION_TYPE: Potency

[[record]]
record_smiles = "ClC(Cl)Br"
result = "72.5 mg/kg/day"


* * *

# Tested on: rat chronic carcinogenicity bioassay, TD50
# ASSAY_DETAILS: DSSTox (CPDBAS) Carcinogenic Potency Database Summary Rat Bioassay Results
# CONDITION_SUMMARY: TD50_Rat_Note: TD50 is harmonic mean of more than one positive test; TargetSites_Rat_Female: kidney; stronger effect = lower value
Listed here: items and their measured Potency.
OBSERVATION_TYPE: Potency

[[record]]
compound = "O=P(OCCCl)(OCCCl)OCCCl"
observation_type = "Potency"
result = "86.7 mg/kg/day"

[[record]]
compound = "O=P(OCC(Br)CBr)(OCC(Br)CBr)OCC(Br)CBr (stereo not given)"
observation_type = "Potency"
result = "3.83 mg/kg/day"

[[record]]
compound = "[O-][Br+2]([O-])O"
observation_type = "Potency"
result = "9.82 mg/kg/day"

[[record]]
compound = "N#Cc1c(Cl)c(Cl)c(Cl)c(C#N)c1Cl"
observation_type = "Potency"
result = "2270 mg/kg/day"

[[record]]
compound = "ClC(Cl)=C(Cl)C(Cl)=C(Cl)Cl"
observation_type = "Potency"
result = "65.8 mg/kg/day"


* * *

# Test system: rat chronic carcinogenicity bioassay, TD50
# ASSAY_DETAILS: DSSTox (CPDBAS) Carcinogenic Potency Database Summary Rat Bioassay Results
# CONDITION_SUMMARY: TD50_Rat_Note: TD50 is harmonic mean of more than one positive test; TargetSites_Rat_Female: clitoral gland; ear Zymbals gland; mammary gland; thyroid gland; stronger effect = lower value
OBSERVATION_TYPE: Potency

[[record]]
record_smiles = "COc1ccc(N)cc1N"
observation_type = "Potency"
result = "183 mg/kg/day"


* * *

# Tested on: rat chronic carcinogenicity bioassay, TD50
# ASSAY_DETAILS: DSSTox (CPDBAS) Carcinogenic Potency Database Summary Rat Bioassay Results
# CONDITION_SUMMARY: TargetSites_Rat_Female: liver; lung; skin; stronger effect = lower value
OBSERVATION_TYPE: Potency

[[record]]
record_smiles = "C[C@]12C/C(=C/O)C(=O)C[C@@H]1CC[C@@H]1[C@@H]2CC[C@@]2(C)[C@H]1CC[C@]2(C)O"
observation_type = "Potency"
result = "66.9 mg/kg/day"


* * *

The entries below come with measured Potency values attached.
# Test system: rat chronic carcinogenicity bioassay, TD50
# ASSAY_DETAILS: DSSTox (CPDBAS) Carcinogenic Potency Database Summary Rat Bioassay Results
# CONDITION_SUMMARY: TD50_Rat_Note: TD50 is harmonic mean of more than one positive test; TargetSites_Rat_Female: liver; stronger effect = lower value
OBSERVATION_TYPE: Potency

[[record]]
record_smiles = "CN(C)CCN(Cc1cccs1)c1ccccn1"
observation_type = "Potency"
result = "9.13 mg/kg/day"

[[record]]
record_smiles = "Cc1cc(Cc2ccc(N)c(C)c2)ccc1N"
observation_type = "Potency"
result = "7.38 mg/kg/day"

[[record]]
record_smiles = "Cc1c(N)nc(C)c2c1[nH]c1ccccc12"
observation_type = "Potency"
result = "0.575 mg/kg/day"

[[record]]
record_smiles = "O=C(O)[C@@H]1[C@H](C(=O)O)[C@@]2(Cl)C(Cl)=C(Cl)[C@]1(Cl)C2(Cl)Cl"
observation_type = "Potency"
result = "40.8 mg/kg/day"

[[record]]
record_smiles = "O=NN1CCCCCCCCCCCC1"
observation_type = "Potency"
result = "10.9 mg/kg/day"

[[record]]
record_smiles = "CC[C@H](OC(C)=O)C(C[C@H](C)N(C)C)(c1ccccc1)c1ccccc1"
observation_type = "Potency"
result = "68 mg/kg/day"

